# target.entity: human APJ receptor (Homo sapiens (Human))
# test.name: [35S]GTPγS binding assay on membranes from CHO cells stably expressing human APJ receptor
# condition.info: means of several independent experiments, read-out: Activity hAPJ SPA EC50 IP
pEC50: −log10 of the molar value.
Rule: pEC50 under 7 gives FALSE, otherwise TRUE.

>>> label_value("Cc1cnc([C@@H](O)[C@H](C)S(=O)(=O)Nc2nnc(-c3ccccc3)n2-c2c(F)cccc2F)nc1")
"TRUE"
>>> label_value("CO[C@H](c1ncc(Cl)cn1)[C@H](C)S(=O)(=O)Nc1nnc(-c2cccc3nn(C)cc23)n1C(C)C")
"FALSE"
>>> label_value("COCC(COC)n1c(NS(=O)(=O)[C@@H](C)[C@H](OC)c2ncc(Cl)cn2)nnc1-c1ccccc1")
"TRUE"
>>> label_value("CO[C@H](c1ncc(Cl)cn1)[C@H](C)S(=O)(=O)Nc1nnc(-c2cccc(OC(F)F)c2)n1C1CC1")
"FALSE"
>>> label_value("COc1ncnc(OC)c1-n1c(NS(=O)(=O)[C@@H](C)[C@H](OC)c2ncc(Cl)cn2)nnc1-c1cccc2cn(C)nc12")
"TRUE"
>>> label_value("COc1ncnc(OC)c1-n1c(NS(=O)(=O)[C@@H](C)[C@H](C)c2ccc(Cl)cn2)nnc1-c1ccccc1")
"TRUE"
>>> label_value("COc1ccc(-c2nnc(NS(=O)(=O)[C@@H](C)[C@H](OC)c3ncc(C)cn3)n2-c2c(OC)cccc2OC)cc1C#N")
"TRUE"
>>> label_value("COc1ncnc(OC)c1-n1c(NS(=O)(=O)[C@H]2C[C@@H](OC(C)C)CN(c3ncc(F)cn3)C2)nnc1-c1ccccc1 (single isomer, unassigned)")
"TRUE"
>>> label_value("COc1ncnc(OC)c1-n1c(NS(=O)(=O)[C@@H](C)[C@H](OC)c2ncc(C)cn2)nnc1-c1ccccc1")
"TRUE"
>>> label_value("COc1cccc(OC)c1-n1c(NS(=O)(=O)[C@@H](C)[C@H](OC)c2ncc(C)cn2)nnc1-c1ccccc1F")
"TRUE"
>>> label_value("COc1ccnc(OC)c1-n1c(NS(=O)(=O)[C@@H](C)[C@H](C)c2cnc(C)cn2)nnc1-c1ccccc1 (single isomer, unassigned) [Example 54.0]")
"TRUE"

---

# target.entity: human APJ receptor (Homo sapiens (Human), UniProt P35414)
# Sequence (P35414 whole entry): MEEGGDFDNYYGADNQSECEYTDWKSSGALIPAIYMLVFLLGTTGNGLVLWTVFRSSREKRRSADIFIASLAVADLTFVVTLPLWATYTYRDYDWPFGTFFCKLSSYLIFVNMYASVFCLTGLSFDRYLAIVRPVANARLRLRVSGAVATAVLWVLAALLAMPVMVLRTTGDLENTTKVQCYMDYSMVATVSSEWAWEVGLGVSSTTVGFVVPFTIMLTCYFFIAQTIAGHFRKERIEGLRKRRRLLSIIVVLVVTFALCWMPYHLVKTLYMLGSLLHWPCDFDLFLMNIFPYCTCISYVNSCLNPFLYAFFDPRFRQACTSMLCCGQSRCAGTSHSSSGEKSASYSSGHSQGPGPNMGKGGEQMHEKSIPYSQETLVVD
# test.name: [35S]GTPγS binding assay on membranes from CHO cells stably expressing human APJ receptor
# condition.info: means of several independent experiments, read-out: Activity hAPJ SPA EC50 IP
pEC50: −log10 of the molar value.
readout.name: pEC50

>>> reported_value("COc1ncnc(OC)c1-n1c(NS(=O)(=O)[C@@H](C)[C@H](C)c2cnc(C)cn2)nnc1-c1ccccc1 [Example 26.0]")
8.28
>>> reported_value("COc1cccc(OC)c1-n1c(NS(=O)(=O)[C@@H](C)[C@H](OC)c2ncc(Cl)cn2)nnc1-c1cccc2cn(C)nc12 [Example 91.0]")
8.70
>>> reported_value("COc1ccnc(OC)c1-n1c(NS(=O)(=O)[C@@H](C)[C@H](C)c2cnc(C)cn2)nnc1-c1ccccc1 (single isomer, unassigned) [Example 55.0]")
9.48

---

# target.entity: UniProt:P35414
# test.name: [35S]GTPγS binding assay on membranes from CHO cells stably expressing human APJ receptor
# condition.info: means of several independent experiments, read-out: Activity hAPJ SPA EC50 IP
pEC50: −log10 of the molar value.
Short version: pEC50 at least 8 is condition met, less is condition not met.

>>> label_value("COc1ncnc(OC)c1-n1c(NS(=O)(=O)[C@H]2CCCN(c3ncc(Cl)cn3)C2)nnc1-c1ccccc1 (single isomer, unassigned) [Example 31.0]")
"condition not met"
>>> label_value("COc1ncnc(OC)c1-n1c(NS(=O)(=O)[C@@H](C)[C@H](C)c2ncc(C)cn2)nnc1-c1cccc(C(F)(F)F)c1 [Example 48.0]")
"condition not met"
>>> label_value("COc1cccc(OC)c1-n1c(NS(=O)(=O)[C@@H](C)[C@H](OC)c2ncc(C)cn2)nnc1-c1ccccc1 [Example 77.0]")
"condition met"
>>> label_value("COc1ncnc(OC)c1-n1c(NS(=O)(=O)[C@@H](C)[C@H](OC)c2ncc(C)cn2)nnc1-c1cccc(Cl)c1 [Example 3.0]")
"condition met"
>>> label_value("COc1cccc(OC)c1-n1c(NS(=O)(=O)[C@@H](C)[C@H](OC)c2ncc(C)cn2)nnc1-c1ccc2nc(N)sc2c1 [Example 74.0]")
"condition not met"
>>> label_value("COc1cccc(OC)c1-n1c(NS(=O)(=O)[C@@H](C)[C@@H](OC(C)C)c2ncc(C)cn2)nnc1-c1ccccc1 [Example 13.0]")
"condition met"

// data source = patent US10906890B2
